src = patent US6083969A

Give measured inhibition at 10 µM for each item. Keep answers brief.
molecular target: human prostaglandin H2 synthase type II (COX-2) (Homo sapiens); experiment: Human prostaglandin H2 synthase type II (COX-2) whole cell assay (ECV-304 cells, PGE2 by radioimmunoassay); assay type: cell-based; parameters: endogenous in cells; host or cells: ECV-304; details: @10 μM, read-out: P1: COX 2 Whole Cell % Inhibition
Numbers only, in %.

Take a look at these entries with their results.
• CS(=O)(=O)c1ccc(-n2nc(-c3ccc(Cl)cc3)c3c2C=CCC3)cc1 [Example 4a] = 0
• Clc1ccc(-c2nn(-c3ccc(Cl)cc3)c3c2CCC3)cc1 [Example 2] = 0
• CS(=O)(=O)c1ccc(-n2nc(-c3ccc(Cl)cc3)c3c2CCCCC3)cc1 [Example 10] = 5

State the recorded inhibition at 10 µM for every item in the following list.
1. Fc1ccc(-n2nc(-c3ccc(Cl)cc3)c3c2CCCCC3)cc1 [Example 13-1b]
2. CS(=O)(=O)c1ccc(-n2nc(-c3ccc(F)cc3)c3c2C=CCC3)cc1 [Example 5a]
3. Clc1ccc(-c2nn(-c3ccc(Cl)cc3)c3c2CCCCC3)cc1 [Example 13]

1. 59
2. 9
3. 3

====

Give measured pIC50 for each item. Keep answers brief.
molecular target: COX-1 (Homo sapiens, UniProt P23219); construct: Remove the platelet-rich plasma (PRP) and dilute the PRP 1:20 with 0.9% NaCl; endogenous in cells; assay: Human platelet thromboxane B2 production (via COX-1); conditions: human platelets, TXB2 production; read-out: P5: COX 1 Human Platelet IC50
Sequence (P23219 24-599): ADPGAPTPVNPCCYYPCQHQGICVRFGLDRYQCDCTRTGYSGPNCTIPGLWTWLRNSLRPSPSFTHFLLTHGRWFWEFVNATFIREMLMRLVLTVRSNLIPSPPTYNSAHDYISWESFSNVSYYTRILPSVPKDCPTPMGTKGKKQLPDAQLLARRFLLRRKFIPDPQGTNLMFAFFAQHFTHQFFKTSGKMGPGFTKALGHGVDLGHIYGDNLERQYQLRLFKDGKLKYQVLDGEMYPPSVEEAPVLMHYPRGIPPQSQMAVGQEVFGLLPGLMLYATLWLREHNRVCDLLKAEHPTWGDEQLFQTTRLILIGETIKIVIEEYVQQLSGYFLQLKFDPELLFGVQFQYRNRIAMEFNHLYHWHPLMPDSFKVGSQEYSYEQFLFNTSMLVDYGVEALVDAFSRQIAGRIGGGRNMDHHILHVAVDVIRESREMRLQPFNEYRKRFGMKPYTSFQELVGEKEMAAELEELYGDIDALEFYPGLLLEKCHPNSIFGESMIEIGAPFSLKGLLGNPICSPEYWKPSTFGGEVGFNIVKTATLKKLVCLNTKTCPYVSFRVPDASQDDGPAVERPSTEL
Answers are plain numbers, as −log10 of the molar value.

Take a look at these entries with their results.
• CS(=O)(=O)c1ccc(-n2nc(-c3ccc(Cl)cc3)c3c2CCCCC3)cc1 = 5.00
• c1ccc(-c2nn(-c3ccccc3)c3c2CCCCC3)cc1 = 6.92
• Clc1ccc(-c2nn(-c3ccccc3)c3c2CCCC3)cc1 = 5.00

State the recorded pIC50 for every item in the following list.
1. CS(=O)(=O)c1ccc(-n2nc3ccccc3c2-c2ccc(Cl)cc2)cc1 [Example 32d]
2. COc1ccc(-c2nn(-c3ccccc3)c3c2CCCCC3)cc1

[4.80, 5.00]

====

molecular target: human prostaglandin H2 synthase type I (COX-1) (Homo sapiens, UniProt P23219); construct: expressed in transfected cells; host or cells: COS-7 (African Green Monkey Kidney); assay: Human prostaglandin H2 synthase type I (COX-1) homogenate assay (transfected COS-7 cells, PGE2 formation); type: biochemical; conditions: @10 μM; COS-7 homogenate; read-out: P6: COX 1 Homogenized Cell % Inhibition
Give measured inhibition at 10 µM for each item. Keep answers brief.
One number for each entry, in %.

State the recorded inhibition at 10 µM for every item in the following list.
1. COc1ccc(-n2nc(-c3ccc(Cl)cc3)c3c2CCCCC3)cc1 [Example 8]
2. Cc1ccc(-n2nc(-c3ccc(Cl)cc3)c3c2CCCCC3)cc1 [Example 11]
3. CS(=O)(=O)c1ccc(-n2nc(-c3ccc(Cl)cc3)c3c2C=CCC3)cc1 [Example 4a]
4. COc1ccc(-n2nc(-c3ccc(F)cc3)c3c2CCCCC3)cc1 [Example 9]
5. CS(=O)(=O)c1ccc(-n2nc(-c3ccc(Cl)cc3)c3c2CCCCC3)cc1 [Example 10]
6. CS(=O)(=O)c1ccc(-n2nc(-c3ccc(F)cc3)c3c2C=CCC3)cc1 [Example 5a]

25
74
32
64
24
32

Need inhibition at 10 µM, item Clc1ccc(-c2nn(-c3ccccc3)c3c2CCCCC3)cc1 [Example 12]
93

====

Give measured inhibition at 3 µM for each item. Keep answers brief.
target: COX-1 (Homo sapiens, UniProt P23219); construct: Remove the platelet-rich plasma (PRP) and dilute the PRP 1:20 with 0.9% NaCl; endogenous in cells; host or cells: human platelets (platelet-rich plasma of one volunteer); test: Human platelet thromboxane B2 production (via COX-1); assay type: cell-based; settings: @3 μM (superscript b); human platelets, TXB2 production; read-out: P5: COX 1 Human Platelet % Inhibition
Give bare numbers, in %.

Take a look at these entries with their results.
- CS(=O)(=O)c1ccc(-n2nc3c(c2-c2ccc(C(F)(F)F)cc2)CCC=C3)cc1 [Example 32c]: 24
- CS(=O)(=O)c1ccc(C(=O)C2CC(=O)CCC2=O)cc1 (stereo not shown) [Example 29f]: 6
- Fc1ccc(-n2nc(-c3ccc(Cl)cc3)c3ccc4[nH]c5ccc(F)cc5c4c32)cc1 [Example 32k]: 22

Here is the next item to consider.
Need inhibition at 3 µM, item CCOc1ccc2c(-c3ccc(F)cc3)nn(-c3ccc(S(C)(=O)=O)cc3)c2c1 [Example 32j]
35

====

molecular target: human prostaglandin H2 synthase type II (COX-2) (Homo sapiens, UniProt P35354); experiment: Human prostaglandin H2 synthase type II (COX-2) whole cell assay (ECV-304 cells, PGE2 by radioimmunoassay); assay type: cell-based; parameters: endogenous in cells; host or cells: ECV-304; details: read-out: P2: COX 2 Whole Cell IC50
Sequence (P35354 18-604): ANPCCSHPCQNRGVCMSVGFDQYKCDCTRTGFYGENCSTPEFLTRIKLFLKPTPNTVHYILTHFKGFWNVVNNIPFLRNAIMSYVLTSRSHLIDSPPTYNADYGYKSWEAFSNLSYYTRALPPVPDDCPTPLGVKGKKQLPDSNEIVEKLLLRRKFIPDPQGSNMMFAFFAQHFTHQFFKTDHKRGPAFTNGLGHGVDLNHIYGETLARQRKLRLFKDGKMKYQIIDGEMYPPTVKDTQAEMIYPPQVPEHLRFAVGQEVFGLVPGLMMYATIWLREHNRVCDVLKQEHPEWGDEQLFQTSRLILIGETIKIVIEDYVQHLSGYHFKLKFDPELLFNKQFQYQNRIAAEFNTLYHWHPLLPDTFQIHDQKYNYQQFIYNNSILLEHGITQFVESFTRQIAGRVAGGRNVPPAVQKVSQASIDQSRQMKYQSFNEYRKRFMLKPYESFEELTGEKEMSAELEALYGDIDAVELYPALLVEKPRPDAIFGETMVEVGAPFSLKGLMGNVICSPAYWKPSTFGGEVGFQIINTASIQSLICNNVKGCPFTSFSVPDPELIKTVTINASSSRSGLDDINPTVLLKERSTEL
READOUT_KIND: pIC50
Numbers only, as −log10 of the molar value.

Take a look at these entries with their results.
• Cc1ccc(-n2nc3c(c2-c2ccc(Cl)cc2)CCCCC3)cc1 = 5.91
• COc1ccc(-c2nn(-c3ccccc3)c3c2CCCCC3)cc1 = 5.91

State the recorded pIC50 for every item in the following list.
1. Cc1ccc(-n2nc(-c3ccc(Cl)cc3)c3c2CCCCC3)cc1
2. CS(=O)(=O)c1ccc(-n2nc3c(c2-c2ccc(F)cc2)CCC2OC32)cc1 (stereo not drawn) [Example 48e]
3. COc1ccc(-n2nc3c(c2-c2ccc(F)cc2)CCCCC3)cc1

6.19
5.20
5.44

====

Give measured pIC50 for each item. Keep answers brief.
molecular target: COX-1 (Homo sapiens, UniProt P23219); construct: Remove the platelet-rich plasma (PRP) and dilute the PRP 1:20 with 0.9% NaCl; endogenous in cells; assay: Human platelet thromboxane B2 production (via COX-1); conditions: human platelets, TXB2 production; read-out: P5: COX 1 Human Platelet IC50
pIC50: −log10 of the molar value.

Take a look at these entries with their results.
* CS(=O)(=O)c1ccc(-n2nc3c(c2-c2ccc(Cl)cc2)CCC(O)C3)cc1 (stereo not shown) [Example 49d] | < 5.00
* CS(=O)(=O)c1ccc(-n2nc(-c3ccc(C(F)(F)F)cc3)c3c2C=CCC3)cc1 [Example 32g] | < 5.00
* COc1ccc(-n2nc3c(c2-c2ccc(Cl)cc2)CCCCC3)cc1 | < 5.00

Need pIC50, item CS(=O)(=O)c1ccc(-n2nc(-c3ccc(Cl)cc3)c3c2C=CCC3)cc1
< 5.00
